Data origin, for the record: PubChem BioAssay (NCI)

Reported growth inhibition by item:
assay: NCI Yeast Anticancer Drug Screen. Data for the sgs1 mgt1 strain (AID 161);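 note: 0% = growth of cultures given vehicle only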; details: S. cerevisiae sgs1 mgt1 strain, at 50.0 µM, active compounds read high
About 79,000 compounds went through this panel and 15% of them were active in at least one assay; those are over-represented in the sample as a whole.
Provide the reading as a plain figure in %.

Record summary for ClC(Cl)(Cl)CC(Br)c1ccccc1 (configuration not stated) : reported growth inhibition = 7.55

Next:
Record summary for O=C(Nc1ccc(F)cc1)C(=O)C(C1OC(=O)c2ccccc21)[N+](=O)[O-] (configuration not stated) : reported growth inhibition = 8.7

Record summary for CC1SC2(C(=O)Nc3ccccc32)N(c2ccc(Cl)cc2)C1=O (configuration not stated) : reported growth inhibition = -12.4

Record summary for N#CC1CCCCCCCCCCC(=O)N(CCCl)C1=O (configuration not stated) : reported growth inhibition = 13.2

----------
assay: NCI Yeast Anticancer Drug Screen. Data for the rad50 strain (AID 155);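 note: 0% = growth of vehicle-only cultures of the same strain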; conditions: S. cerevisiae rad50 strain growth inhibition; at 50.0 µM; active compounds read high
Compounds without any hit were thinned out: in the full panel of roughly 79,000, 15% have a hit.
Reported growth inhibition by item:
Provide the reading as a plain figure in %.

These solved cases illustrate the format of a correct answer.
Record summary for C=CCOC(=O)Nc1cc(Cl)ccc1C : reported growth inhibition = 3.9

Record summary for CCOC(=O)CSc1ccnc(=O)[nH]1 : reported growth inhibition = -9.25

Record summary for COC(=O)CCCCCCC/C=N/Nc1ccc([N+](=O)[O-])cc1[N+](=O)[O-] : reported growth inhibition = 6.9

Record summary for COc1cc(NC(C)=O)c2[nH]c3c(C)cc(NC(C)=O)c(C)c3c2c1 : reported growth inhibition = -25.6

Next:
Record summary for O=C(O)C(CCl)c1ccccc1 (configuration not stated) : reported growth inhibition = 7.05

Record summary for CCOC(Cn1ncc(C#N)c1N)OCC : reported growth inhibition = -13.7

Record summary for N#CC(CC(=O)NN)C(=O)NN (configuration not stated) : reported growth inhibition = -20.4

----------
experiment: NCI Yeast Anticancer Drug Screen. Data for the sgs1 mgt1 strain (AID 161);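 note: 0% = growth of cultures given vehicle only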; conditions: S. cerevisiae sgs1 mgt1 strain, at 50.0 µM, active compounds read high
The panel holds about 79,000 compounds, 15% with a hit somewhere; the sample as a whole holds those more often.
Reported growth inhibition by item:
Provide the reading as a plain figure in %.

Record summary for CCOc1ccccc1N(CCN(C)C)C(=O)C(c1ccccc1)c1ccccc1 : reported growth inhibition = 1.05

Record summary for Cc1ccc(S(=O)(=O)Nc2ccc(S(C)(=O)=O)cc2)cc1 : reported growth inhibition = -5.6

Record summary for O=C1C(CN2CCCCC2)CCC1CN1CCCCC1 (stereo unspecified) : reported growth inhibition = 30.8

Next:
Record summary for O=c1oc2nc(-c3ccccc3)[nH]c(=O)c2c(O)c1Cc1ccccc1 : reported growth inhibition = 1.55

Record summary for CCOC(=O)N[n+]1ccccc1 : reported growth inhibition = 4.35

Record summary for c1ccc2c(c1)C(=C1c3ccccc3-c3ccccc31)c1ccccc1-2 : reported growth inhibition = -0.3

----------
assay: NCI Yeast Anticancer Drug Screen. Data for the cln2 rad14 strain (AID 165);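 note: 0% = growth equal to vehicle treated cultures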; conditions: S. cerevisiae cln2 rad14 strain, at 50.0 µM, active compounds read high
The panel holds about 79,000 compounds, 15% with a hit somewhere; the sample as a whole holds those more often.
Measurement type: growth inhibition (%)
Provide the reading as a plain figure in %.

These solved cases illustrate the format of a correct answer.
Record summary for Cc1ccc(C2OC(=O)C(=O)C2=O)cc1 (configuration not stated) : reported growth inhibition = -21.6

Record summary for Oc1cc2c(cc1C(c1ccc(Cl)cc1)N1CCCCC1)OCO2 (configuration not stated) : reported growth inhibition = -6.4

Record summary for CC1=C(C(=O)O)CCCO1 : reported growth inhibition = -3

Next:
Record summary for O=[N+]([O-])c1c(O)c2nonc2c2nn(-c3ccccc3)nc12 : reported growth inhibition = 25.8

----------
assay: NCI Yeast Anticancer Drug Screen. Data for the mec2-1 strain (AID 157); settings: S. cerevisiae mec2-1 strain, at 50.0 µM, active compounds read high
About 79,000 compounds went through this panel and 15% of them were active in at least one assay; those are over-represented in the sample as a whole.
# binarize growth inhibition: threshold 20% inclusive, high side Yes, low side No

Would you say BrC1CC2CCCCC2CC1Br (stereo unspecified) shows growth inhibition at minimum 20%?
Yes

Would you say CCOC(=O)/C(=C\c1ccccc1)c1nc2ccccc2[nH]1 shows growth inhibition at minimum 20%?
No

Would you say O=C(Nc1ccc(F)cc1)C(=O)C(C1OC(=O)c2ccccc21)[N+](=O)[O-] (stereo unspecified) shows growth inhibition at minimum 20%?
No

Next:
Would you say Nc1cn(Cc2ccccc2)c(=O)n(Cc2ccccc2)c1=O shows growth inhibition at minimum 20%?
No

Would you say O=C(OC[P+](c1ccccc1)(c1ccccc1)c1ccccc1)c1ccccc1 shows growth inhibition at minimum 20%?
Yes

Would you say C=C1CCC2[C@](C)(CCC[C@]2(C)C(=O)O)[C@@H]1CCc1ccoc1 (stereo partly specified) shows growth inhibition at minimum 20%?
Yes

----------
Test: NCI Yeast Anticancer Drug Screen. Data for the mec2-1 strain (AID 157)
Details: S. cerevisiae mec2-1 strain, at 50.0 µM, active compounds read high
Procedure: Growth inhibition of yeast strains with defined genetic alterations is measured as a screen for potential anti-cancer activity. Selected strains with alterations in DNA damage repair or cell cycle control were exposed to compounds and growth inhibition was measured relative to vehicle treated controls. The strain used in this assay is mec2-1
The panel holds about 79,000 compounds, 15% with a hit somewhere; the sample as a whole holds those more often.
Measurement type: growth inhibition (%)
Provide the reading as a plain figure in %.

Record summary for O=C(O)CCCC[P+](c1ccccc1)(c1ccccc1)c1ccccc1 : reported growth inhibition = 7.8

Record summary for CCCCC(CCc1ccccc1)C(=O)NCC (configuration not stated) : reported growth inhibition = -11.6

Record summary for CC(O)CNc1ncnc2ccccc12 (configuration not stated) : reported growth inhibition = -12.2

Record summary for CCOC(CNCc1ccc(OC)cc1)OCC : reported growth inhibition = -3.1

Record summary for CC1OC(C)(c2ccccc2)OC1C (configuration not stated) : reported growth inhibition = 13.8

Record summary for C=C1C(=O)OC2CC3(CO3)C3C(O)C(O)CC3(C)CC12 (configuration not stated) : reported growth inhibition = 2.45

Next:
Record summary for O=C(Nc1ccc(Cl)cc1Cl)C1C(=O)C(=O)N(c2ccc(Cl)cc2Cl)C1=O (configuration not stated) : reported growth inhibition = -10.1

Record summary for CC(=O)Nc1cc2cc(N)ccc2oc1=O : reported growth inhibition = 0.4

Record summary for CCN(CC)c1ccc2c(C)c(Cc3ccccc3)c(=O)oc2c1 : reported growth inhibition = -22.8

----------
assay: NCI Yeast Anticancer Drug Screen. Data for the sgs1 mgt1 strain (AID 161);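 note: 0% = growth of cultures given vehicle only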; conditions: S. cerevisiae sgs1 mgt1 strain, at 50.0 µM, active compounds read high
This is part of a sample that, as a whole, favours compounds with a hit. Of some 79,000 tested, about 15% had one in any assay.
Measurement type: growth inhibition (%)
Provide the reading as a plain figure in %.

These solved cases illustrate the format of a correct answer.
Record summary for CC(=O)/C(C)=C\C=C(\C)C(C)=O : reported growth inhibition = -16.2

Record summary for CC(c1ccccc1)C1(C)NC(=O)NC1=O (configuration not stated) : reported growth inhibition = -2.1

Record summary for N#CC1C=CN(Cc2ccccc2)C=C1C(=O)c1ccccc1 (configuration not stated) : reported growth inhibition = -5.85

Record summary for COc1cc2c(cc1C)C(C)(C)CCC2(C)C : reported growth inhibition = -3.1

Record summary for CC1(C)OCC2(CO1)CSCCCSCC1(COC(C)(C)OC1)CSCCCSC2 : reported growth inhibition = -8.75

Next:
Record summary for Cc1ccc(C(=O)CC2(O)C(=O)Nc3ccccc32)cc1 (configuration not stated) : reported growth inhibition = 22.4

Record summary for Clc1ccccc1C(Cl)c1ccccc1 (configuration not stated) : reported growth inhibition = -5.95

Record summary for O=c1[nH]c(=O)n(C2CC(O)C(CO)O2)cc1NN=NCCCc1ccccc1 (configuration not stated) : reported growth inhibition = -8.5

Record summary for C/C(CC1SCCCS1)=C(/C)CC1SCCCS1 : reported growth inhibition = -23.1

Record summary for Cn1cnc(N2CCCC2)c(C#N)c1=S : reported growth inhibition = -4.7

Record summary for O=C(N=c1nc(NC(=O)c2ccccc2)ss1)c1ccccc1 : reported growth inhibition = -2.8

Record summary for CCOC(=O)c1nc(-c2ccccc2)c(-c2ccccc2)c(-c2ccccc2)c1C : reported growth inhibition = 10.2

----------
assay: NCI Yeast Anticancer Drug Screen. Data for the sgs1 mgt1 strain (AID 161);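 note: 0% = growth of cultures given vehicle only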; conditions: S. cerevisiae sgs1 mgt1 strain, at 50.0 µM, active compounds read high
About 79,000 compounds went through this panel and 15% of them were active in at least one assay; those are over-represented in the sample as a whole.
Reported growth inhibition by item:
Provide the reading as a plain figure in %.

Record summary for CC(/C=C/C(=O)c1ccccc1)=C\C=N\N(C)c1ccccc1 : reported growth inhibition = -1.05

Record summary for O=C(O)[C@H](CSSC[C@@H](C(=O)O)N1C(=O)c2ccccc2C1=O)N1C(=O)c2ccccc2C1=O : reported growth inhibition = -4.85

Record summary for Cc1ccc(C(C)C)cc1NC(=O)NCCCl : reported growth inhibition = 2.8
